Items are presented alongside their recorded Acyl CoA Vm.
Target: yeast NMT (Saccharomyces cerevisiae)
Construct: 11,000-fold purified preparation of yeast NMT; endogenous in cells; host or cells: yeast (enzyme purified from yeast, 11,000-fold)
Sequence (P14743 1-455): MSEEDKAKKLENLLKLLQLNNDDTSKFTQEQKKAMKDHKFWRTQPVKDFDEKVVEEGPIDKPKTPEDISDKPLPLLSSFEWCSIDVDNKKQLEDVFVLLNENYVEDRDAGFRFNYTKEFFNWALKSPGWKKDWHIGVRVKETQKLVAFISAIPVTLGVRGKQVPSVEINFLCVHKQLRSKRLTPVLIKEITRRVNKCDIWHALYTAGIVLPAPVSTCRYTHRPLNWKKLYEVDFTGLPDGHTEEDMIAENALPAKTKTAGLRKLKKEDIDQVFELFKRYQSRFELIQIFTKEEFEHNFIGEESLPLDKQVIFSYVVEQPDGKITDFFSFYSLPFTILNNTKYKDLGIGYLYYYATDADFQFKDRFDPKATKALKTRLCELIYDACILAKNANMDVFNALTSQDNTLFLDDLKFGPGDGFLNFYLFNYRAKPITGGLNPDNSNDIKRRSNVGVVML
Assay: kinetic characterisation of fatty acid analogs as yeast NMT substrates
Assay type: biochemical
Conditions: radiolabelled peptide at its Km, analog varied; myristate control = 100%
READOUT_KIND: Acyl CoA Vm (%)

>>> quantitative_result("CCOCCCCCCCCCCC(=O)O [B, 11-(Ethoxy)undecanoic acid]")
64
>>> quantitative_result("CCCOCCCCCCCCCC(=O)O")
250
>>> quantitative_result("COCCCCCCCCCCC(=O)O")
163
>>> quantitative_result("CCCCCCCCOCCCCC(=O)O")
675
>>> quantitative_result("CCSCCCCCCCCCCC(=O)O [A, 11-(Ethylthio)undecanoic acid]")
130
>>> quantitative_result("CCCSCCCCCCCCCC(=O)O")
250

Provenance of the data: patent US5959145A
